Quick list: MIC per entry.
tested on: Enterococcus faecalis; assay: Antibacterial activity against Enterococcus faecalis ATCC 15376 expressing vanA gene by broth microdilution method; type: functional
Write the number in µg/mL without appending the unit.

Fill in reported MIC for this entry: COC(=O)[C@H]1NC(=O)[C@H]2NC(=O)[C@H](NC(=O)[C@@H]3NC(=O)[C@H]4NC(=O)[C@H](NC(=O)[C@H](n5cc6ccccc6c5S[C@@H]5O[C@H](COC(C)=O)[C@@H](OC(C)=O)[C@H](OC(C)=O)[C@H]5OC(C)=O)c5ccc(O)c(c5)Oc5cc4cc(O)c5C)[C@H](O)c4ccc(cc4)Oc4cc3cc(c4O)Oc3ccc(cc3)[C@H]2O)c2ccc(O)c(c2)-c2c(O)cc(O)cc21
8

Look up MIC of COC(=O)[C@H]1NC(=O)[C@H]2NC(=O)[C@H](NC(=O)[C@@H]3NC(=O)[C@H]4NC(=O)[C@H](NC(=O)[C@H](n5cc6cc7ccccc7cc6c5Sc5ncccn5)c5ccc(O)c(c5)Oc5cc4cc(O)c5C)[C@H](O)c4ccc(cc4)Oc4cc3cc(c4O)Oc3ccc(cc3)[C@H]2O)c2ccc(O)c(c2)-c2c(O)cc(O)cc21 and report it.
2

For the molecule COC(=O)[C@H]1NC(=O)[C@H]2NC(=O)[C@H](NC(=O)[C@@H]3NC(=O)[C@H]4NC(=O)[C@H](NC(=O)[C@H](n5cc6cc7ccccc7cc6c5Sc5ccccc5)c5ccc(O)c(c5)Oc5cc4cc(O)c5C)[C@H](O)c4ccc(cc4)Oc4cc3cc(c4O)Oc3ccc(cc3)[C@H]2O)c2ccc(O)c(c2)-c2c(O)cc(O)cc21 , give its measured MIC value.
0.5
